Source listed as patent US6784184B2.

Biological target: FPTase (K-Ras substrate) (UniProt P29702+P49355)
Test: in vitro FTase Inhibition Assay, K-Ras as substrate for farnesylation
Details: K-Ras used as substrate for farnesylation
measured-metric: IC50

Previously resolved entries follow.
> print(dat)
                                   compound  measured.metric          result
1  COc1ccc(S(=O)(=O)C2(CCCC#Cc3ccccc3Cl)SC(=O)NC2=O)cc1 (stereo not drawn) [Example 101]             IC50  110 to 1000 nM
2  COc1ccc(S(=O)(=O)C2(CCCC#Cc3cc(Cl)ccc3C)SC(=O)NC2=O)cc1 (stereo not drawn) [Example 138]             IC50   300 to 420 nM

Attention now turns to another entry.
O=C1NC(=O)C(CCCC#Cc2ccc(Cl)cc2)(S(=O)(=O)c2ccc(F)cc2)S1 (stereo not drawn) [Example 105] tested on FPTase (K-Ras substrate) (UniProt P29702+P49355) gave IC50: 1500 to 1700 nM
